B1: TOR1AIP2 (parent)
chain: HHVADAYTSSQKVSPIQIDGAGRT

variants of: B1; test: protein stability index of a GFP-peptide fusion (GPS, HEK-293T) (PSI 1-6); higher = more stable; conditions: c terminus: a fixed tail appended;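 further: lentivirally expressed fusions sorted by FACS into six bins by GFP to DsRed ratio, PSI derived from sequencing read proportions per bin multiplied by bin number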
Assign class by protein stability index: not lower than 4 means 1.0; lower than 4 means 0.0.

Use these answered entries as a reference point.
INSERT INTO assay_data (mutant_code, label) VALUES
  ('H1F', 0.0),
  ('T24Y', 0.0),
  ('V3N', 0.0),
  ('D5W', 1.0),
  ('I16S', 0.0),
  ('K12A', 0.0),
  ('G22Q', 0.0),
  ('Y7P', 1.0),
  ('D19V', 0.0),
  ('Y7R', 1.0);

// query Kindly determine if protein stability index recorded for I16M is above or exactly 4.
// result 0.0

// query Kindly determine if protein stability index recorded for D5P is above or exactly 4.
// result 0.0

// query Kindly determine if protein stability index recorded for K12F is above or exactly 4.
// result 0.0

// query Kindly determine if protein stability index recorded for D5E is above or exactly 4.
// result 0.0

// query Kindly determine if protein stability index recorded for Q11T is above or exactly 4.
// result 0.0

// query Kindly determine if protein stability index recorded for A21R is above or exactly 4.
// result 0.0

// query Kindly determine if protein stability index recorded for H1Q is above or exactly 4.
// result 1.0

// query Kindly determine if protein stability index recorded for V3G is above or exactly 4.
// result 0.0

// query Kindly determine if protein stability index recorded for V3H is above or exactly 4.
// result 0.0

// query Kindly determine if protein stability index recorded for A4S is above or exactly 4.
// result 0.0

// query Kindly determine if protein stability index recorded for V13H is above or exactly 4.
// result 0.0

// query Kindly determine if protein stability index recorded for S14K is above or exactly 4.
// result 0.0
